Target: T1, cyno IL-23 (cyno, limits assumed)
T1 construct: Heterodimer of p19 and p40; also called cynomolgus IL-23
T1 chain 1: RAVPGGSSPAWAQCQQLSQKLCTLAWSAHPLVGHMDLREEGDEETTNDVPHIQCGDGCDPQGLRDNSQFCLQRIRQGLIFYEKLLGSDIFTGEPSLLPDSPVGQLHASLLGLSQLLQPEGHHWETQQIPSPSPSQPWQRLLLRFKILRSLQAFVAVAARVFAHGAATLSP
T1 chain 2: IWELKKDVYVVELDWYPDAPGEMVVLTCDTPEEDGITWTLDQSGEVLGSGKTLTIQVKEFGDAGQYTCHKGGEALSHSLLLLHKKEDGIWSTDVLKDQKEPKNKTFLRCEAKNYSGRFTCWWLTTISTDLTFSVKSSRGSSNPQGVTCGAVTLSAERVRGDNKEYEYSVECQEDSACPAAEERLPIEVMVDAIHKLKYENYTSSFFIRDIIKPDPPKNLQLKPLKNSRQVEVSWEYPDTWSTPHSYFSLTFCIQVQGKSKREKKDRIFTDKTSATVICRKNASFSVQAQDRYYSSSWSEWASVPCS
Assay: SPR Biacore, purified mAb captured on anti-human IgG, cyno IL-23 64-0.062 nM
value kind: koff (s⁻¹)
Give the number; s⁻¹ is assumed, so skip it.

Per the records, this binder ( A24AM4 (antibody, human IgG1, kappa, V domains shown) VH: QVQLVQSGAEVKKPGSSVKVSCKASGYTFTSYGITWVRQAPGQGLEWMGENYPRSGNIYYNEKFKGRVTITADKSTSTAYMELSSLRSEDTAVYYCARAEFISTVVAPYYYALDYWGQGTLVTVSS VL: DIVMTQSPDSLAVSLGERATINCKASKKVTIFGSTSALHWYQQKPGQPPKLIYNGAKPESGVPDRFSGSGSGTDFTLTISSLQAEDVAVYYCLQNKEVPYTFGGGTKVEIKR ) has koff equal to 0.000147
